// values below are reported IC50
System: MDA175-VII (NRG1-DOC4 fusion) cells
Assay: Cell viability of MDA175-VII (NRG1-DOC4 fusion) cells, Cell Titer Glo assay
Type: cell-based
Conditions: MDA175-VII (NRG1-DOC4 fusion) cells treated with IACS inhibitors, 72 hours

Examples from the recorded data:
C=CC(=O)N1CCC(Oc2cc3c(Nc4ccc(Br)c(Cl)c4)ncnc3cc2OC)CC1    0.296 nM
C=CC(=O)N1CC(Oc2cc3c(Nc4ccc(Cl)cc4Cl)ncnc3cc2OC)C1    10.5 nM

Return reported IC50; argument: C=CC(=O)N1CC(Oc2ccc3ncnc(Nc4ccc(Cl)c(Cl)c4)c3n2)C1
26.8 nM

// same read-out, input: C=CC(=O)N1CCC(Oc2cc3c(Nc4ccc(Cl)cc4Cl)ncnc3cc2OC)CC1
4.46 nM

// same read-out, input: C=CC(=O)N1CCC(Oc2cc3c(Nc4ccc(Cl)c(Cl)c4)ncnc3cc2OC)CC1
0.157 nM

// same read-out, input: C=CC(=O)N1CCC(Oc2cc3c(Nc4ccc(Cl)c(Cl)c4F)c(C#N)cnc3cc2OC)CC1
1.29 nM

// same read-out, input: C=CC(=O)N1CC(Oc2cc3c(Nc4ccccc4)ncnc3cc2OC)C1
1.08 nM

// same read-out, input: C=CC(=O)N1CC(Oc2cc3c(Nc4ccc(Br)c(Cl)c4)ncnc3cc2OC)C1
0.979 nM
